- Test system: MCF7
- assay.procedure: Antitumor activity against human MCF7 cells at 0.1 uM assessed as cell growth
- Format: functional
measured.parameter: Activity (%)
Answer format: numeric, % implied, no suffix.

Some entries whose results are on file:
smiles.code | unit.label | value.reported
CN(C)CCCNC(=O)c1cc(NC(=O)CCNS(=O)(=O)c2ccc3c(c2)C(=O)c2ccccc2C3=O)cn1C | % | 1
CN(C)CCCNC(=O)c1cc(NC(=O)c2cc(NC(=O)CCNS(=O)(=O)c3ccc4c(c3)C(=O)c3ccccc3C4=O)cn2C)cn1C | % | 27
CN(C)CCCNC(=O)c1cc(NC(=O)CCNC(=O)c2ccc3c(c2)C(=O)c2ccccc2C3=O)cn1C | % | 32

q: Form entry - test system: MCF7; read-out: Activity; molecule: CN(C)CCCNC(=O)c1cc(NC(=O)c2cc(NC(=O)CCCn3c4ccccc4c(=O)c4ccccc43)cn2C)cn1C
a: 48
